Each recorded value in this set is attributed to patent US20120082682A1.

# tested-on: T1, human IL-13 (recombinant E. coli-expressed) (human, UniProt P35225 35-146)
# T1 construct: also called hIL-13
# assay-remarks: Biacore T100 SPR, mAb (supernatant) captured on anti-human IgG, IL13 analyte, 1:1 fit
measure: Kd

In the examples that follow, each entry is paired with its recorded Kd.
{"binder": "A1S95TrpL1 (antibody, human IgG1, kappa, V domains shown, CDRH3 variant of A1L1) VH: QVQLVQSGAEVKKPGSSVKVSCKASGFYIKDTYMHWVRQAPGQGLEWMGTIDPANGNTKYVPKFQGRVTITADESTSTAYMELSSLRSEDTAVYYCARWIYDDYHYDDYYAMDYWGQGTLVTVSS VL: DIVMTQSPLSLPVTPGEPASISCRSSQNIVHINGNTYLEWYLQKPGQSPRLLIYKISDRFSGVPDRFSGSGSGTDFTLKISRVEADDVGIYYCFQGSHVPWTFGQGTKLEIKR", "value": "0.216 nM"}
{"binder": "A1Y100B AlaL1 (antibody, human IgG1, kappa, V domains shown, CDRH3 variant of A1L1) VH: QVQLVQSGAEVKKPGSSVKVSCKASGFYIKDTYMHWVRQAPGQGLEWMGTIDPANGNTKYVPKFQGRVTITADESTSTAYMELSSLRSEDTAVYYCARSIYDDYHADDYYAMDYWGQGTLVTVSS VL: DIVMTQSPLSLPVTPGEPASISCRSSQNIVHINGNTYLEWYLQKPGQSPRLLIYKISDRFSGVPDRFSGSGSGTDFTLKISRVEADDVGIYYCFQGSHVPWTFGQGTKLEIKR", "value": "0.083 nM"}
{"binder": "A1H100A ArgL1 (antibody, human IgG1, kappa, V domains shown, CDRH3 variant of A1L1) VH: QVQLVQSGAEVKKPGSSVKVSCKASGFYIKDTYMHWVRQAPGQGLEWMGTIDPANGNTKYVPKFQGRVTITADESTSTAYMELSSLRSEDTAVYYCARSIYDDYRYDDYYAMDYWGQGTLVTVSS VL: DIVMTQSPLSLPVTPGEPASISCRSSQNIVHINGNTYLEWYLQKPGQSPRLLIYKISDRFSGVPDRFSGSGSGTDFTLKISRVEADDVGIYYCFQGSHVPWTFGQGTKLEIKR", "value": "0.307 nM"}

Challenge: Supply recorded Kd for A1H100A GluL1 (antibody, human IgG1, kappa, V domains shown, CDRH3 variant of A1L1) VH: QVQLVQSGAEVKKPGSSVKVSCKASGFYIKDTYMHWVRQAPGQGLEWMGTIDPANGNTKYVPKFQGRVTITADESTSTAYMELSSLRSEDTAVYYCARSIYDDYEYDDYYAMDYWGQGTLVTVSS VL: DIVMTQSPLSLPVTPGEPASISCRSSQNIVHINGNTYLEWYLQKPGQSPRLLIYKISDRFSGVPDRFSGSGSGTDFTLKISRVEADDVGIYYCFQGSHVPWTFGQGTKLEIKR here.
Response given: 0.195 nM
